Data origin, for the record: the supplement of paper PMC6757056

B1: library; a variant is named by its letters at N, in order (parent)
chain: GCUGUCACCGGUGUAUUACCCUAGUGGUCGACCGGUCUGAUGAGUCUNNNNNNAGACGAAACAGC

- Variants of: B1
- assay: FACS-Seq fitted mean relative fluorescence mCherry/BFP without ligand (log10 relative fluorescence); ligand: hypoxanthine (xanthine aptamer); higher = higher reporter protein expression
- conditions: HEK293T, ligand present: no
Answer Condition not met if FACS-Seq fitted mean (log10) is under 0.3, and Condition met if it is 0.3 or more.

>>> group_label("UGGUUC")
"Condition not met"
>>> group_label("AUUAGC")
"Condition not met"
>>> group_label("CGCGUA")
"Condition met"
>>> group_label("GGAUUG")
"Condition not met"
>>> group_label("ACGGAC")
"Condition met"
>>> group_label("UUGAUA")
"Condition not met"
>>> group_label("AACCGC")
"Condition not met"
>>> group_label("AACGGA")
"Condition met"
>>> group_label("GAUGAU")
"Condition met"
>>> group_label("AGGCUA")
"Condition met"
>>> group_label("CACGUA")
"Condition met"
>>> group_label("GUUCAA")
"Condition not met"
>>> group_label("GAAUAA")
"Condition met"
>>> group_label("GCAUGG")
"Condition not met"
>>> group_label("UAAUAG")
"Condition met"
>>> group_label("CAAUAA")
"Condition met"
>>> group_label("CACGAA")
"Condition not met"
>>> group_label("AUCAAG")
"Condition not met"
>>> group_label("AAUGUU")
"Condition met"
>>> group_label("AUCCGC")
"Condition met"
>>> group_label("GGUGCU")
"Condition met"
